Origin of values: paper PMC8307404

tested on: p38 MAPK; assay: Kinase profiling (radiometric filter-binding); format: biochemical, human; details: fourth of four lines (Greek letter lost), 1 µM inhibitor
Square brackets hold non-standard residues; d marks the D form. Peptide text beside a SMILES is read from it. * marks the point of attachment. X3 = O=C(CCCCCNCc1nc2c(sc3cc(Br)cnc32)c(=O)[nH]1)*
# reported Residual activity, %; entries follow
outcomeMeasure: Residual activity, % (%)

{"columns": ["compound", "valueReported"],
 "data": [
  ["N=C(N)NCCC[C@@H](NC(=O)CNC(=O)[C@@H](CCCNC(=N)N)NC(=O)[C@@H](CCCNC(=N)N)NC(=O)Cn1cc(CNCc2nc3c(sc4ccc(Br)cc43)c(=O)[nH]2)nn1)C(=O)N[C@H](CCCCN)C(N)=O", 111],
  ["N=C(N)NCCC[C@@H](NC(=O)CNC(=O)[C@@H](CCCNC(=N)N)NC(=O)[C@@H](CCCNC(=N)N)NC(=O)CCCCCCCNCc1nc2c(sc3ccc(Br)cc32)c(=O)[nH]1)C(=O)N[C@H](CCCCN)C(N)=O", 115],
  ["N=C(N)NCCC[C@@H](NC(=O)CCCCCNCc1nc2c(sc3cc(Br)cnc32)c(=O)[nH]1)C(=O)N[C@H](CCCNC(=N)N)C(=O)N[C@H](CCCNC(=N)N)C(=O)N[C@H](CCCNC(=N)N)C(=O)N[C@H](CCCNC(=N)N)C(=O)N[C@H](CCCNC(=N)N)C(=O)N[C@H](CCCCN)C(N)=O [ARC-3126, BPTP-Ahx-(D-Arg)6-D-Lys-NH2] (X3-[dR][dR][dR][dR][dR][dR][dK]-NH2)", 129]
]}

###

molecular target: CDK9-Cyclin T1 (Homo sapiens, UniProt P50750); test: Kinase profiling (radiometric filter-binding); type: biochemical; conditions: CDK9-Cyclin T1, 1 µM inhibitor; read-out: Residual activity, %
Sequence (P50750 whole entry): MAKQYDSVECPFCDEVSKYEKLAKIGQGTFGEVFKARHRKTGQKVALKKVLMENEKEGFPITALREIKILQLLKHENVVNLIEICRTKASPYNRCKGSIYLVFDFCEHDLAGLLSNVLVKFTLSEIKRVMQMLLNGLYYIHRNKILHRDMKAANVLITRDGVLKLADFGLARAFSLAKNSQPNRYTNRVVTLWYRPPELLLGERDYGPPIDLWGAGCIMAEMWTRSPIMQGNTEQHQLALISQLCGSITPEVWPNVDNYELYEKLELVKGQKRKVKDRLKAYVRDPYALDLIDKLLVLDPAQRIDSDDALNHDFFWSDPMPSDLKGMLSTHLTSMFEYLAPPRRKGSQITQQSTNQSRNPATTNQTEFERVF
Sequence (O60563 whole entry partner): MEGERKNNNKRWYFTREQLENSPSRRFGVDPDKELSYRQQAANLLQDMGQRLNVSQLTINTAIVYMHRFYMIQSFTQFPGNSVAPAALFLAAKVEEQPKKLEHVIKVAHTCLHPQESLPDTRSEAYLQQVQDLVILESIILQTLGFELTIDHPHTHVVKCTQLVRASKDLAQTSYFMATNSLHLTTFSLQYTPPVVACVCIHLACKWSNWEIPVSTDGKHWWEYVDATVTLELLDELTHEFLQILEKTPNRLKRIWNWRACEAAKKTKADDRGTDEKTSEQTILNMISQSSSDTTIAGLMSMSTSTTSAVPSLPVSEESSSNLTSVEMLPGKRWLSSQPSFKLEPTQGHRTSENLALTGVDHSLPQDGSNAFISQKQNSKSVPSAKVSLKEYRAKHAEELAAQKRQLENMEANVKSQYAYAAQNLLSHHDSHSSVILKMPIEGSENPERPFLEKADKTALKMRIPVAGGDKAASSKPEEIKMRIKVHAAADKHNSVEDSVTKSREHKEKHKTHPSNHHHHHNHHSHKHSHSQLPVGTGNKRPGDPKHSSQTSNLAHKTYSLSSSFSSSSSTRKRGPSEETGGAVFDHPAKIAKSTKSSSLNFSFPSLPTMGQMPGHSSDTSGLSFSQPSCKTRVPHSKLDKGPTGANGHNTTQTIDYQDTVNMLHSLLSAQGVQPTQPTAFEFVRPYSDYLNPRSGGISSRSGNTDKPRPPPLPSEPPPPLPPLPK
Square brackets hold non-standard residues; d marks the D form. Peptide text beside a SMILES is read from it. * marks the point of attachment. X3 = O=C(CCCCCNCc1nc2c(sc3cc(Br)cnc32)c(=O)[nH]1)*
# reported remaining activity at 1 µM; entries follow
outcomeMeasure: remaining activity at 1 µM (%)

{"columns": ["compound", "valueReported"],
 "data": [
  ["N=C(N)NCCC[C@@H](NC(=O)CNC(=O)[C@@H](CCCNC(=N)N)NC(=O)[C@@H](CCCNC(=N)N)NC(=O)CCCCCCCNCc1nc2c(sc3cc(Br)cnc32)c(=O)[nH]1)C(=O)N[C@H](CCCCN)C(N)=O [Compound 1, BPTP-Aoc-(D-Arg)2-Gly-D-Arg-D-Lys-NH2]", 110],
  ["N=C(N)NCCC[C@@H](NC(=O)CCCCCNC(=O)Cn1cnc2c(I)c(I)c(I)c(I)c21)C(=O)N[C@H](CCCNC(=N)N)C(=O)N[C@H](CCCNC(=N)N)C(=O)N[C@H](CCCNC(=N)N)C(=O)N[C@H](CCCNC(=N)N)C(=O)N[C@H](CCCNC(=N)N)C(=O)N[C@H](CCCCN)C(N)=O [ARC-3125, TIBI-CH2-C(=O)-Ahx-(D-Arg)6-D-Lys-NH2]", 55],
  ["N=C(N)NCCC[C@@H](NC(=O)CCCCCNCc1nc2c(sc3cc(Br)cnc32)c(=O)[nH]1)C(=O)N[C@H](CCCNC(=N)N)C(=O)N[C@H](CCCNC(=N)N)C(=O)N[C@H](CCCNC(=N)N)C(=O)N[C@H](CCCNC(=N)N)C(=O)N[C@H](CCCNC(=N)N)C(=O)N[C@H](CCCCN)C(N)=O [ARC-3126, BPTP-Ahx-(D-Arg)6-D-Lys-NH2] (X3-[dR][dR][dR][dR][dR][dR][dK]-NH2)", 104],
  ["N=C(N)NCCC[C@@H](NC(=O)CNC(=O)[C@@H](CCCNC(=N)N)NC(=O)[C@@H](CCCNC(=N)N)NC(=O)CCCCCCCNCc1nc2c(sc3ccc(Br)cc32)c(=O)[nH]1)C(=O)N[C@H](CCCCN)C(N)=O [Compound 2, BBTP-Aoc-(D-Arg)2-Gly-D-Arg-D-Lys-NH2]", 101],
  ["N=C(N)NCCC[C@@H](NC(=O)CNC(=O)[C@@H](CCCNC(=N)N)NC(=O)[C@@H](CCCNC(=N)N)NC(=O)Cn1cc(CNCc2nc3c(sc4ccc(Br)cc43)c(=O)[nH]2)nn1)C(=O)N[C@H](CCCCN)C(N)=O [Compound 3, BBTP-Amt-(D-Arg)2-Gly-D-Arg-D-Lys-NH2]", 90]
]}

###

molecular target: MKK1 (Homo sapiens); test: Kinase profiling (radiometric filter-binding); type: biochemical; details: MKK1, 1 µM inhibitor; read-out: Residual activity, %
Sequence (Q02750 whole entry): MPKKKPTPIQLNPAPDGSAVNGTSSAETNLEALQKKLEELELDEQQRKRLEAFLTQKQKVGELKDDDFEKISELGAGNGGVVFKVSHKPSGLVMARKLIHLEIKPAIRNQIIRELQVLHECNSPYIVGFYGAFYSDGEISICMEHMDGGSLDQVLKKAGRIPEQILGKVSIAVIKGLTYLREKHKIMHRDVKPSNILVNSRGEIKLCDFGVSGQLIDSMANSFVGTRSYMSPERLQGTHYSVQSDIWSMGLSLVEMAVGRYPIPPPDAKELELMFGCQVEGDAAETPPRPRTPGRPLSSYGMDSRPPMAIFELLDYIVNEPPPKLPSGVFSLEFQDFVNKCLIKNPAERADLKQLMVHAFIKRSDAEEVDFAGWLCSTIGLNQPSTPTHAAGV
Square brackets hold non-standard residues; d marks the D form. Peptide text beside a SMILES is read from it. * marks the point of attachment. X3 = O=C(CCCCCNCc1nc2c(sc3cc(Br)cnc32)c(=O)[nH]1)*
# reported remaining activity at 1 µM; entries follow
outcomeMeasure: remaining activity at 1 µM (%)

{"columns": ["compound", "outcomeMeasure", "valueReported"],
 "data": [
  ["N=C(N)NCCC[C@@H](NC(=O)CCCCCNCc1nc2c(sc3cc(Br)cnc32)c(=O)[nH]1)C(=O)N[C@H](CCCNC(=N)N)C(=O)N[C@H](CCCNC(=N)N)C(=O)N[C@H](CCCNC(=N)N)C(=O)N[C@H](CCCNC(=N)N)C(=O)N[C@H](CCCNC(=N)N)C(=O)N[C@H](CCCCN)C(N)=O [ARC-3126, BPTP-Ahx-(D-Arg)6-D-Lys-NH2] (X3-[dR][dR][dR][dR][dR][dR][dK]-NH2)", "remaining activity at 1 µM", 100],
  ["N=C(N)NCCC[C@@H](NC(=O)CNC(=O)[C@@H](CCCNC(=N)N)NC(=O)[C@@H](CCCNC(=N)N)NC(=O)Cn1cc(CNCc2nc3c(sc4ccc(Br)cc43)c(=O)[nH]2)nn1)C(=O)N[C@H](CCCCN)C(N)=O", "remaining activity at 1 µM", 92],
  ["N=C(N)NCCC[C@@H](NC(=O)CNC(=O)[C@@H](CCCNC(=N)N)NC(=O)[C@@H](CCCNC(=N)N)NC(=O)CCCCCCCNCc1nc2c(sc3cc(Br)cnc32)c(=O)[nH]1)C(=O)N[C@H](CCCCN)C(N)=O", "remaining activity at 1 µM", 93],
  ["N=C(N)NCCC[C@@H](NC(=O)CNC(=O)[C@@H](CCCNC(=N)N)NC(=O)[C@@H](CCCNC(=N)N)NC(=O)CCCCCCCNCc1nc2c(sc3ccc(Br)cc32)c(=O)[nH]1)C(=O)N[C@H](CCCCN)C(N)=O", "remaining activity at 1 µM", 94],
  ["N=C(N)NCCC[C@@H](NC(=O)CCCCCNC(=O)Cn1cnc2c(I)c(I)c(I)c(I)c21)C(=O)N[C@H](CCCNC(=N)N)C(=O)N[C@H](CCCNC(=N)N)C(=O)N[C@H](CCCNC(=N)N)C(=O)N[C@H](CCCNC(=N)N)C(=O)N[C@H](CCCNC(=N)N)C(=O)N[C@H](CCCCN)C(N)=O", "remaining activity at 1 µM", 32]
]}

###

target: PIM3 (Homo sapiens); assay: Binding/displacement assay with FA or TGLI readout; parameters: made in house; conditions: mean ± SEM, N = 2
Square brackets hold non-standard residues; d marks the D form. Peptide text beside a SMILES is read from it. * marks the point of attachment. X3 = O=C(CCCCCNCc1nc2c(sc3cc(Br)cnc32)c(=O)[nH]1)*

{"columns": ["compound", "censoringSign", "Kd [nM]"],
 "data": [
  ["CN1C(=CC=CC=CC2=[N+](CCCCCC(=O)NCCCC[C@@H](NC(=O)[C@@H](CCCNC(=N)N)NC(=O)CNC(=O)[C@@H](CCCNC(=N)N)NC(=O)[C@@H](CCCNC(=N)N)NC(=O)CCCCc3cn(Cc4nc5c(sc6ccc(Br)cc65)c(=O)[nH]4)nn3)C(N)=O)c3ccccc3C2(C)C)C(C)(C)c2ccccc21", "=", 8.3],
  ["N=C(N)NCCC[C@@H](NC(=O)CNC(=O)[C@@H](CCCNC(=N)N)NC(=O)[C@@H](CCCNC(=N)N)NC(=O)CCCCCCCNCc1nc2c(sc3cc(Br)cnc32)c(=O)[nH]1)C(=O)N[C@H](CCCCN)C(N)=O", "=", 5.2],
  ["N=C(N)NCCC[C@@H](N)C(=O)N[C@H](CCCNC(=N)N)C(=O)NCC(=O)N[C@H](CCCNC(=N)N)C(=O)N[C@H](CCCCN)C(N)=O [PIM peptide, (D-Arg)2-Gly-D-Arg-D-Lys-NH2]", ">", 16400],
  ["N=C(N)NCCC[C@@H](NC(=O)CNC(=O)[C@@H](CCCNC(=N)N)NC(=O)[C@@H](CCCNC(=N)N)NC(=O)CCCCCCCNC(=O)[C@@H]1C[C@@H](O)CN1Cc1nc2c(sc3ccc(Br)cc32)c(=O)[nH]1)C(=O)N[C@H](CCCCN)C(N)=O", "=", 30.4],
  ["N=C(N)NCCC[C@@H](NC(=O)CCCCCNCc1nc2c(sc3cc(Br)cnc32)c(=O)[nH]1)C(=O)N[C@H](CCCNC(=N)N)C(=O)N[C@H](CCCNC(=N)N)C(=O)N[C@H](CCCNC(=N)N)C(=O)N[C@H](CCCNC(=N)N)C(=O)N[C@H](CCCNC(=N)N)C(=O)N[C@H](CCCCN)C(N)=O [ARC-3126, BPTP-Ahx-(D-Arg)6-D-Lys-NH2] (X3-[dR][dR][dR][dR][dR][dR][dK]-NH2)", "=", 2],
  ["N=C(N)NCCC[C@@H](NC(=O)CNC(=O)[C@@H](CCCNC(=N)N)NC(=O)[C@@H](CCCNC(=N)N)NC(=O)Cn1cc(CNCc2nc3c(sc4ccc(Br)cc43)c(=O)[nH]2)nn1)C(=O)N[C@H](CCCCN)C(N)=O", "=", 7],
  ["N=C(N)NCCC[C@@H](NC(=O)CNC(=O)[C@@H](CCCNC(=N)N)NC(=O)[C@@H](CCCNC(=N)N)NC(=O)CCCCCCCNCc1nc2c(sc3ccc(Br)cc32)c(=O)[nH]1)C(=O)N[C@H](CCCCN)C(N)=O", "=", 2]
]}
